# Lookup of reported EC50 keyed by entry
# tested.system: mMC5R (Mus musculus, UniProt P41149)
# Sequence (P41149 whole entry): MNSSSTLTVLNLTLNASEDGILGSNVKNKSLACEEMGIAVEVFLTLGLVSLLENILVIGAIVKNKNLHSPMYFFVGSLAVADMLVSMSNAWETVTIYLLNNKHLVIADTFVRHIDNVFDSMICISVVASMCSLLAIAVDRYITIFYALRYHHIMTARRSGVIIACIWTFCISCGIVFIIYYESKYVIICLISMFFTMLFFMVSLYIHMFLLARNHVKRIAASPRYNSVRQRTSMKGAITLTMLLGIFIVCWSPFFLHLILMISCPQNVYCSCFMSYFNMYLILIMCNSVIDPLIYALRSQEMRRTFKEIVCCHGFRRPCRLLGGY
# experiment: cAMP AlphaScreen agonist assay, HEK293 cells stably expressing mouse MC5R
# condition.set: read-out: mMC5R EC50; agonist, cAMP
Non-standard residues stand in square brackets, D forms with d. Residues, ends and D or L forms follow the SMILES beside them. Dap = NC[C@H](N)C(=O)O
Give just the number in nM; leave the unit off.

Previously resolved entries follow.
- compound: "C[C@@H]1NC(=O)[C@H](CN)NC(=O)[C@H](Cc2c[nH]c3ccccc23)NC(=O)[C@H](CCCNC(=N)N)NC(=O)[C@@H](Cc2ccccc2)NC(=O)[C@@H]2CCCN2C(=O)[C@H]2CCCN2C1=O [MDE6-5-1c, c[Pro-DPhe-Arg-Trp-Dap-Ala-DPro]] (cyclo(P[dF]RW[Dap]A[dP]))"
  tested.system: "mMC5R (Mus musculus, UniProt P41149)"
  EC50 / nM: 48
- compound: "C[C@@H]1NC(=O)[C@H](CC(N)=O)NC(=O)[C@H](Cc2c[nH]c3ccccc23)NC(=O)[C@H](CCCNC(=N)N)NC(=O)[C@@H](Cc2ccccc2)NC(=O)[C@H](Cc2cnc[nH]2)NC(=O)[C@@H]2CCCN2C(=O)[C@H]2CCCN2C(=O)[C@H](Cc2ccccc2)NC1=O [MDE5-149-2c, c[Pro-His-DPhe-Arg-Trp-Asn-Ala-Phe-DPro]] (cyclo(H[dF]RWNAF[dP]P))"
  tested.system: "mMC5R (Mus musculus, UniProt P41149)"
  EC50 / nM: 0.45
- compound: "C[C@@H]1NC(=O)[C@H](CN)NC(=O)[C@H](Cc2c[nH]c3ccccc23)NC(=O)[C@H](CCCNC(=N)N)NC(=O)[C@@H](Cc2ccccc2)NC(=O)[C@H](Cc2cnc[nH]2)NC(=O)[C@@H]2CCCN2C(=O)[C@H]2CCCN2C1=O [MDE6-5-2c, c[Pro-His-DPhe-Arg-Trp-Dap-Ala-DPro]] (cyclo(H[dF]RW[Dap]A[dP]P))"
  tested.system: "mMC5R (Mus musculus, UniProt P41149)"
  EC50 / nM: 0.3

Pending compound:
Given item N=C(N)NCCC[C@@H]1NC(=O)[C@@H](Cc2ccccc2)NC(=O)[C@H](Cc2c[nH]cn2)NC(=O)[C@@H]2CCCN2C(=O)[C@H]2CCCN2C(=O)[C@H](Cc2c[nH]c3ccccc23)NC1=O [MDE5-147-2c, c[Pro-His-DPhe-Arg-Trp-DPro]] (cyclo(PH[dF]RW[dP])) , the value recorded as its EC50 is 6000

###

# Lookup of reported EC50 keyed by entry
# tested.system: mMC1R (Mus musculus, UniProt Q01727)
# Sequence (Q01727 whole entry): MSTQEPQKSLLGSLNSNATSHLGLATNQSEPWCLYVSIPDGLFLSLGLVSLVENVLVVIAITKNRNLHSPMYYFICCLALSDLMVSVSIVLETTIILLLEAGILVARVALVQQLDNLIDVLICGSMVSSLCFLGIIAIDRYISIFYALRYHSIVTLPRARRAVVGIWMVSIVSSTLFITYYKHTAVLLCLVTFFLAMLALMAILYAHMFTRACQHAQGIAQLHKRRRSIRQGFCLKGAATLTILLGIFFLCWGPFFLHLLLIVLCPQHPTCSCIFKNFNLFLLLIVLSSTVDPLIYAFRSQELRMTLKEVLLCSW
# experiment: cAMP AlphaScreen agonist assay, HEK293 cells stably expressing mouse MC1R
# condition.set: read-out: mMC1R EC50; agonist, cAMP
Non-standard residues stand in square brackets, D forms with d. Residues, ends and D or L forms follow the SMILES beside them. Dap = NC[C@H](N)C(=O)O
Give just the number in nM; leave the unit off.

Given item C[C@@H]1NC(=O)[C@H](CN)NC(=O)[C@H](Cc2c[nH]c3ccccc23)NC(=O)[C@H](CCCNC(=N)N)NC(=O)[C@@H](Cc2ccccc2)NC(=O)[C@@H]2CCCN2C(=O)[C@H]2CCCN2C1=O [MDE6-5-1c, c[Pro-DPhe-Arg-Trp-Dap-Ala-DPro]] (cyclo(P[dF]RW[Dap]A[dP])) , the value recorded as its EC50 is 600

Given item N=C(N)NCCC[C@@H]1NC(=O)[C@@H](Cc2ccccc2)NC(=O)[C@@H]2CCCN2C(=O)[C@H]2CCCN2C(=O)[C@H](CN)NC(=O)[C@H](Cc2c[nH]c3ccccc23)NC1=O [MDE6-12-1c, c[Pro-DPhe-Arg-Trp-Dap-DPro]] (cyclo(P[dF]RW[Dap][dP])) , the value recorded as its EC50 is 110

Given item C[C@@H]1NC(=O)[C@H](CN)NC(=O)[C@H](Cc2c[nH]c3ccccc23)NC(=O)[C@H](CCCNC(=N)N)NC(=O)[C@@H](Cc2ccccc2)NC(=O)[C@H](Cc2cnc[nH]2)NC(=O)[C@@H]2CCCN2C(=O)[C@H]2CCCN2C1=O [MDE6-5-2c, c[Pro-His-DPhe-Arg-Trp-Dap-Ala-DPro]] (cyclo(H[dF]RW[Dap]A[dP]P)) , the value recorded as its EC50 is 1.1

Given item C[C@@H]1NC(=O)[C@H](CC(N)=O)NC(=O)[C@H](Cc2c[nH]c3ccccc23)NC(=O)[C@H](CCCNC(=N)N)NC(=O)[C@@H](Cc2ccccc2)NC(=O)[C@H](Cc2cnc[nH]2)NC(=O)[C@@H]2CCCN2C(=O)[C@H]2CCCN2C(=O)[C@H](Cc2ccccc2)NC1=O [MDE5-149-2c, c[Pro-His-DPhe-Arg-Trp-Asn-Ala-Phe-DPro]] (cyclo(H[dF]RWNAF[dP]P)) , the value recorded as its EC50 is 0.35

Given item C[C@@H]1NC(=O)[C@H](CN)NC(=O)[C@H](Cc2c[nH]c3ccccc23)NC(=O)[C@H](CCCNC(=N)N)NC(=O)[C@@H](Cc2ccccc2)NC(=O)[C@H](Cc2c[nH]cn2)NC(=O)[C@@H]2CCCN2C(=O)[C@H]2CCCN2C(=O)[C@H](Cc2ccccc2)NC1=O [MDE5-151-2c, c[Pro-His-DPhe-Arg-Trp-Dap-Ala-Phe-DPro]] (cyclo(PH[dF]RW[Dap]AF[dP])) , the value recorded as its EC50 is 24

Given item C[C@@H]1NC(=O)[C@H](CC(N)=O)NC(=O)[C@H](Cc2c[nH]c3ccccc23)NC(=O)[C@H](CCCNC(=N)N)NC(=O)[C@@H](Cc2ccccc2)NC(=O)[C@@H]2CCCN2C(=O)[C@H]2CCCN2C(=O)[C@H](Cc2ccccc2)NC1=O [MDE5-149-1c, c[Pro-DPhe-Arg-Trp-Asn-Ala-Phe-DPro]] (cyclo(P[dF]RWNAF[dP])) , the value recorded as its EC50 is 400

Given item C[C@@H]1NC(=O)[C@H](CN)NC(=O)[C@H](Cc2c[nH]c3ccccc23)NC(=O)[C@H](CCCNC(=N)N)NC(=O)[C@@H](Cc2ccccc2)NC(=O)[C@@H]2CCCN2C(=O)[C@H]2CCCN2C(=O)[C@H](Cc2ccccc2)NC1=O [MDE5-151-1c, c[Pro-DPhe-Arg-Trp-Dap-Ala-Phe-DPro]] (cyclo(P[dF]RW[Dap]AF[dP])) , the value recorded as its EC50 is 190

Given item N=C(N)NCCC[C@@H]1NC(=O)[C@@H](Cc2ccccc2)NC(=O)[C@H](Cc2c[nH]cn2)NC(=O)[C@@H]2CCCN2C(=O)[C@H]2CCCN2C(=O)[C@H](Cc2c[nH]c3ccccc23)NC1=O [MDE5-147-2c, c[Pro-His-DPhe-Arg-Trp-DPro]] (cyclo(PH[dF]RW[dP])) , the value recorded as its EC50 is 900

Given item N=C(N)NCCC[C@@H]1NC(=O)[C@@H](Cc2ccccc2)NC(=O)[C@@H]2CCCN2C(=O)[C@H]2CCCN2C(=O)[C@H](Cc2c[nH]c3ccccc23)NC1=O [MDE5-147-1c, c[Pro-DPhe-Arg-Trp-DPro]] (cyclo(P[dF]RW[dP])) , the value recorded as its EC50 is 1800

Given item N=C(N)NCCC[C@@H]1NC(=O)[C@@H](Cc2ccccc2)NC(=O)[C@@H]2CCCN2C(=O)[C@H]2CCCN2C(=O)[C@H](CC(N)=O)NC(=O)[C@H](Cc2c[nH]c3ccccc23)NC1=O [MDE6-10-1c, c[Pro-DPhe-Arg-Trp-Asn-DPro]] (cyclo(P[dF]RWN[dP])) , the value recorded as its EC50 is 40

FYI, the data here is from patent US11124541B2.
